Tgt: human HER2 cytoplasmic domain (HER2-CD, amino acid 676-1255) (Homo sapiens)
Construct: human HER2 cytoplasmic domain (HER2-CD, amino acid 676-1255)
Sequence (P04626 676-1255): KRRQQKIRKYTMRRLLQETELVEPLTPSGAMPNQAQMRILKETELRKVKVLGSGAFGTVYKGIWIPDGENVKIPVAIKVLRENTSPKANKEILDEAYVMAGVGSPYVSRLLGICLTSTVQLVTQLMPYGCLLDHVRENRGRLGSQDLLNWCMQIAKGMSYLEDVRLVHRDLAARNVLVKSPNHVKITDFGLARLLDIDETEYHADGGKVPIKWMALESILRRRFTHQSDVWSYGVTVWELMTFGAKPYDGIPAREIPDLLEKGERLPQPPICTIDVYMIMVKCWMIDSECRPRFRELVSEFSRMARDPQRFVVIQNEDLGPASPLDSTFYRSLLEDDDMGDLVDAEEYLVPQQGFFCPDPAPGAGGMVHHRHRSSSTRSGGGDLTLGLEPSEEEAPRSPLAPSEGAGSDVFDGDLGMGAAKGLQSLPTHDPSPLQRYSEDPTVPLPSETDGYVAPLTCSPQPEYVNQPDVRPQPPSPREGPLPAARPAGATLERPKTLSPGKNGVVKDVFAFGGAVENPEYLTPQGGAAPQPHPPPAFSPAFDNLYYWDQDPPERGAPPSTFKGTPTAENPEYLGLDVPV
Run Description: Inhibition of HER2 kinase autophosphorylation, recombinant enzyme, DELFIA/time-resolved fluorometry
Assay Setup: recombinant HER2 autophosphorylation
Value Type: IC50 (nM)
One number for each entry, in nM.

Required: IC50, one value per compound below.
1. CCOc1cc2ncc(C#N)c(Nc3ccc(F)c(Cl)c3)c2cc1NC(=O)CC(CN(C)C)SCC(NC(=O)CC[C@@H](N)C(=O)O)C(=O)NCC(=O)O (stereo partly shown)
2. CCOc1cc2ncc(C#N)c(Nc3ccc(OCc4ccccc4)c(Cl)c3)c2cc1NC(=O)CC(CCCN(C)C)N(C)C (stereo not shown)
3. CCOc1cc2ncc(C#N)c(Nc3ccc(F)c(Cl)c3)c2cc1NC(=O)CC(C)N(C)C (stereo not shown)

[854, 1590, 10000]

Please look up its IC50: CCOc1cc2ncc(C#N)c(Nc3ccc(OCc4ccccc4)c(Cl)c3)c2cc1NC(=O)CC(CN1CCCC1)N1CCCC1 (stereo not shown)
33.7

* * *

Tgt: EGFR cytoplasmic domain (EGFR-CD, amino acid 645-1186) (Homo sapiens)
Construct: EGFR cytoplasmic domain (EGFR-CD, amino acid 645-1186)
Sequence (P00533 669-1210): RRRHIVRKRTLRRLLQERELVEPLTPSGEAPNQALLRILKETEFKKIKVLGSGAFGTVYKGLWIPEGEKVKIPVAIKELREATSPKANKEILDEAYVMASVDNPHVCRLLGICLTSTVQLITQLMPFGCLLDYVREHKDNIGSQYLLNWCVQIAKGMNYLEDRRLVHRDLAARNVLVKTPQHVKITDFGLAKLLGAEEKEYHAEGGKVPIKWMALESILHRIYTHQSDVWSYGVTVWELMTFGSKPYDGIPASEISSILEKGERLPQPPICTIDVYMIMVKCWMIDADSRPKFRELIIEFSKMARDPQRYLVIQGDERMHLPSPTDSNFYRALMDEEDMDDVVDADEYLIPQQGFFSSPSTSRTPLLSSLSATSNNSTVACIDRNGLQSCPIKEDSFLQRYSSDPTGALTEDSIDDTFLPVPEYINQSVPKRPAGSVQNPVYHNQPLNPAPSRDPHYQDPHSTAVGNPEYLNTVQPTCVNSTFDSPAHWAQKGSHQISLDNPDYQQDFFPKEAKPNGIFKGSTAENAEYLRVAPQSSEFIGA
Run Description: Inhibition of EGF-R kinase autophosphorylation, recombinant enzyme, DELFIA/time-resolved fluorometry
Task for the reader: assign each of the following compounds its reported IC50.
Answers are plain numbers, in µM.

Required: IC50, one value per compound below.
1. CCOc1cc2ncc(C#N)c(Nc3ccc(F)c(Cl)c3)c2cc1NC(=O)CC(CN(C)C)SCC(NC(=O)CC[C@@H](N)C(=O)O)C(=O)NCC(=O)O (some centres unmarked)
2. COc1cc2ncc(C#N)c(Nc3ccc(Sc4nc(-c5ccccc5)cs4)c(Cl)c3)c2cc1NC(=O)CC(CN(C)C)N(C)C (centres unmarked)

1. 2.19
2. 4.76

* * *

Tested on: 3T3 (murine fiboblasts)
Run Description: Inhibition of cell growth, sulforhodamine B assay, 3T3
Format: cell-based
Assay Setup: Mus musculus, 48 h, 3T3, 2 days; read-out: Inhibition of Cancer Cell Growth in vitro IC50, 3T3
Task for the reader: assign each of the following compounds its reported log10 of IC50.
Log10 applied to IC50; unit prior to transform: µg/mL.

Consider the reported log10 of IC50 for these compounds:
Please look up its log10 of IC50: COc1cc2ncc(C#N)c(Nc3ccc(F)c(Cl)c3)c2cc1NC(=O)CC(CN1CCC(O)C1)N1CCC(O)C1 (stereo not drawn) [Example 2]
0.65

Please look up its log10 of IC50: CCOc1cc2ncc(C#N)c(Nc3ccc(OCc4ccccc4)c(Cl)c3)c2cc1NC(=O)CC(CN1CCCC1)N1CCCC1 (stereo not drawn) [Example 7]
-0.46

Please look up its log10 of IC50: COc1cc2ncc(C#N)c(Nc3ccc(Sc4nc(-c5ccccc5)cs4)c(Cl)c3)c2cc1NC(=O)CC(CN(C)C)N(C)C (stereo not drawn) [Example 1]
-0.12

Please look up its log10 of IC50: CCOc1cc2ncc(C#N)c(Nc3ccc(OCc4ccccc4)c(Cl)c3)c2cc1NC(=O)CC(CCCN(C)C)N(C)C (stereo not drawn) [Example 5]
-0.38

Pending compound:
Please look up its log10 of IC50: CCOc1cc2ncc(C#N)c(Nc3ccc(F)c(Cl)c3)c2cc1NC(=O)CC(C)N(C)C (stereo not drawn) [Example 3]
0.11
